- System: microorganisms
- test_details: Morphology, biofilm and growth disruption by peptides (Table 5)
- Format: cell-based
- Set-up: key: A: Peptide aggregates; B: Less hyphal formation; Clumps; Diffuse clumps and small polyps; F: Diffuse growth; H: Thin; I: Growth inhibition; Microcolony formation; Rippled; Small polyps; Thick; W: Halo formation on top, microlonies on bottom
- details: S. mutans
quantity_measured: Organism, effect (morphology, biofilm and growth disruption)

Known Organism, effect (morphology, biofilm and growth disruption) results, listed for orientation:
PF-C055 (YNLSIYIYFLHTITIAGLITLPFII; Peptide with targeting and/or antimicrobial activity); S. mutans (I)
PF-578 (QKANLRIGFTYTSDSNVCNLTFALLGSK; Peptide with targeting and/or antimicrobial activity); S. mutans (D)
PF-C058 (FETGFGDGYYMSLWGLNEKDEVCKVVIPFINPELID; Peptide with targeting and/or antimicrobial activity); S. mutans (F)
PF-634 (chain 1 MPKARPVNHNKKKSKITIKSNFTLFYMFNP; chain 2 MPKARPVNHNKKKSKITIKSNFTLFYMFNP; Peptide with targeting and/or antimicrobial activity); S. mutans (D)
PF-C062 (PLARATEVVATLFIICSLLLYLTR; Peptide with targeting and/or antimicrobial activity); S. mutans (I)

Form: substance = TKKIELKRFVDAFVKKSYENYILERELKKLIKAINEELPTK [PF-600] ; Organism, effect (morphology, biofilm and growth disruption) = S. mutans (S)

Organism, effect (morphology, biofilm and growth disruption) recorded for this substance, PF-C142 (DFPPLSFFRRRFHAYTAPIDNFFGANPF; Peptide with targeting and/or antimicrobial activity) , is S. mutans (I)

Memo: PF-776 (VSILLYLSATIILPNVLRLLVARAIIVRV; Peptide with targeting and/or antimicrobial activity) , reported Organism, effect (morphology, biofilm and growth disruption): S. mutans (D)

Lab note: PF-C057 (YFWWYWVQDCIPYKNNEVWLELSNNMK; Peptide with targeting and/or antimicrobial activity) gave Organism, effect (morphology, biofilm and growth disruption) of S. mutans (I)

Organism, effect (morphology, biofilm and growth disruption) measured on PF-C293 (IIIILPKIYLVCKTV; Peptide with targeting and/or antimicrobial activity) = S. mutans (F)

Organism, effect (morphology, biofilm and growth disruption) measured on PF-624 (VFLLDSYCFVKINL; Peptide with targeting and/or antimicrobial activity) = S. mutans (D)

Record PF-C131 (QWIVAKREIRMHIYCHISVIHVIIFFG; Peptide with targeting and/or antimicrobial activity) , field Organism, effect (morphology, biofilm and growth disruption): S. mutans (F)

The measured Organism, effect (morphology, biofilm and growth disruption) associated with NTNDLLQAFELMGLGMAGVFIVLGILYIVAELLIKIFPVNN [PF-C194] reads S. mutans (F)

Note to self: Organism, effect (morphology, biofilm and growth disruption) recorded for PF-543 (NILFGIIGFVVAMTAAVIVTAISIAK; Peptide with targeting and/or antimicrobial activity) was S. mutans (S)

---

- Tested on: microorganisms
- test_details: Morphology, biofilm and growth disruption by peptides (Table 5)
- Assay type: cell-based
- Set-up: key: A: Peptide aggregates; B: Less hyphal formation; Clumps; Diffuse clumps and small polyps; F: Diffuse growth; H: Thin; I: Growth inhibition; Microcolony formation; Rippled; Small polyps; Thick; W: Halo formation on top, microlonies on bottom
- details: S. epidermidis
Ends that are not written are not given here.
quantity_measured: Organism, effect (morphology, biofilm and growth disruption)

Study these solved cases before continuing.
PF-685 (chain 1 PTLWLACL; chain 2 PTLWLACL; Peptide with targeting and/or antimicrobial activity); S. epidermidis (M)
PF-598 (MKFMLEVRNKAISAYKEITRTQI; Peptide with targeting and/or antimicrobial activity); S. epidermidis (R)
PF-526 (VLLLFIFQPFQKQLL-NH2); S. epidermidis (C)
PF-613 (ADEFAKL; Peptide with targeting and/or antimicrobial activity); S. epidermidis (R)
PF-431 (VAYAAICWW; Peptide with targeting and/or antimicrobial activity); S. epidermidis (M)
PF-610 (VFLKLKTSKIDLASIIFYP; Peptide with targeting and/or antimicrobial activity); S. epidermidis (C)

Looking up PF-632 (chain 1 TTIQGVASLEKHGFRYTIIYPTRI; chain 2 TTIQGVASLEKHGFRYTIIYPTRI; Peptide with targeting and/or antimicrobial activity) , I found its Organism, effect (morphology, biofilm and growth disruption) recorded as S. epidermidis (D)

get_value(item= PF-638 (chain 1 TFILPK; chain 2 TFILPK; Peptide with targeting and/or antimicrobial activity) , readout=Organism, effect (morphology, biofilm and growth disruption)) returns S. epidermidis (R)

Per the record, PF-634 (chain 1 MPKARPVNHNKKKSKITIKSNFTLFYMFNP; chain 2 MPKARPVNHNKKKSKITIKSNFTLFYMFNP; Peptide with targeting and/or antimicrobial activity) has Organism, effect (morphology, biofilm and growth disruption) of S. epidermidis (D)
